test_description: Dose response of Hst1 and PIC in the presence of CWE
Assay type: in vitro ADME, human
condition_notes: human, chronic wound extracts (CWE), with protease inhibitor cocktail (PIC), PIC:CWE 1:280 v/v, Hst1 1 mg/ml; PIC:CWE 1:280 v/v; CWE 1 mg/ml; 37°C, 24 h; CZE, 0 h = 100%; experiment 2 of 3; read-out: Intact Hst1, CWE + PIC 1:280 24h
Where no end group is shown, it is not given here.
outcome_measure: remaining at 24 h, 1 mg/ml (%)
Answer with a number only, understood to be in %.

Measured remaining at 24 h, 1 mg/ml of DSHEKRHHGYRRKFHEKHHSHREFPFYGDYGSNYLYDN [Hst1] : 51.5

Taken from paper PMC4809600.
